assay: Plasma clearance in beagle dog at 1 mg/kg, iv by LC/MS/MS analysis; type: ADME, organism-based, Canis lupus familiaris; design: dose 1 mg/kg, route intravenous

| compound.structure.string | clearance (mL/min/kg) |
| --- | --- |
| CCN1C(=O)CCCc2c1ccc(Nc1ncc(Cl)c(N[C@H]3[C@@H](C(N)=O)[C@@H]4C=C[C@H]3C4)n1)c2OC | 22 |

###

assay: Drug uptake in tumor lysates in SCID mouse xenografted with ALK-positive human SUP-M2 cells at 10 mg/kg, po bid for 12 days; format: ADME, organism-based, Neoplasm; set-up: dose 10 mg/kg, route oral; conditions: read-out: Drug uptake

| compound.structure.string | unit.tag | concentration at 288 h |
| --- | --- | --- |
| CCN1C(=O)CCCc2c1ccc(Nc1ncc(Cl)c(N[C@H]3[C@@H](C(N)=O)[C@@H]4C=C[C@H]3C4)n1)c2OC | ng/g | 3560 |

###

experiment: Oral bioavailability in beagle dog at 10 mg/kg; assay type: ADME, organism-based, Canis lupus familiaris; conditions: in vivo
result.type: bioavailability (%)

| compound.structure.string | unit.tag | measured |
| --- | --- | --- |
| CCN1C(=O)CCCc2c1ccc(Nc1ncc(Cl)c(N[C@H]3[C@@H](C(N)=O)[C@@H]4C=C[C@H]3C4)n1)c2OC | % | 31 |

###

experiment: Plasma concentration in SCID mouse xenografted with ALK-positive human SUP-M2 cells at 55 mg/kg, po bid for 12 days; format: ADME, organism-based; parameters: dose 55 mg/kg, route oral
result.type: concentration at 288 h (ng/mL)

| compound.structure.string | unit.tag | measured |
| --- | --- | --- |
| CCN1C(=O)CCCc2c1ccc(Nc1ncc(Cl)c(N[C@H]3[C@@H](C(N)=O)[C@@H]4C=C[C@H]3C4)n1)c2OC | ng/mL | 3700 |

###

assay: Oral bioavailability in Sprague-Dawley rat at 5 mg/kg; assay type: ADME, organism-based; details: in vivo

| compound.structure.string | bioavailability / % |
| --- | --- |
| CCN1C(=O)CCCc2c1ccc(Nc1ncc(Cl)c(N[C@H]3[C@@H](C(N)=O)[C@@H]4C=C[C@H]3C4)n1)c2OC | 64 |

###

biological target: Insulin receptor (Homo sapiens)
Sequence (P06213 28-758 limits assumed): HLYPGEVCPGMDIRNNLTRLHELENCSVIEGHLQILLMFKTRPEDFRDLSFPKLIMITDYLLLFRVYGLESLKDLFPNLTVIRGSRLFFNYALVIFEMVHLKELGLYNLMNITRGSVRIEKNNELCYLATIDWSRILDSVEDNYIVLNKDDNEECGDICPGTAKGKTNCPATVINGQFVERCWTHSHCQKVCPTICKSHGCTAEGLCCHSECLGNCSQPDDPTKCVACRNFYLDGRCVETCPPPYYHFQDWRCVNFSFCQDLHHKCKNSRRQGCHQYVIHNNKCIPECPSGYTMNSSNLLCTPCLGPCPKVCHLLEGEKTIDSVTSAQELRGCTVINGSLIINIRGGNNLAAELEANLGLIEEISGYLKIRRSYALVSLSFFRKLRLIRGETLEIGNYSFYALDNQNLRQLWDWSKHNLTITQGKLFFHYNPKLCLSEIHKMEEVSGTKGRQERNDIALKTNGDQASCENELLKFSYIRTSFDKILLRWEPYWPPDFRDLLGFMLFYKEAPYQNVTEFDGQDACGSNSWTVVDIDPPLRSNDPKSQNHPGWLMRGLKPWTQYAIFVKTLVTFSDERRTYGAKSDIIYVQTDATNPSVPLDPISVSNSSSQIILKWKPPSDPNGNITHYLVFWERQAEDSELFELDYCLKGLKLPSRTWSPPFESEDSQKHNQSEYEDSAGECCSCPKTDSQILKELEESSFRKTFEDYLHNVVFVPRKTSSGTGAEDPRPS
Sequence (P06213 763-1382 limits assumed): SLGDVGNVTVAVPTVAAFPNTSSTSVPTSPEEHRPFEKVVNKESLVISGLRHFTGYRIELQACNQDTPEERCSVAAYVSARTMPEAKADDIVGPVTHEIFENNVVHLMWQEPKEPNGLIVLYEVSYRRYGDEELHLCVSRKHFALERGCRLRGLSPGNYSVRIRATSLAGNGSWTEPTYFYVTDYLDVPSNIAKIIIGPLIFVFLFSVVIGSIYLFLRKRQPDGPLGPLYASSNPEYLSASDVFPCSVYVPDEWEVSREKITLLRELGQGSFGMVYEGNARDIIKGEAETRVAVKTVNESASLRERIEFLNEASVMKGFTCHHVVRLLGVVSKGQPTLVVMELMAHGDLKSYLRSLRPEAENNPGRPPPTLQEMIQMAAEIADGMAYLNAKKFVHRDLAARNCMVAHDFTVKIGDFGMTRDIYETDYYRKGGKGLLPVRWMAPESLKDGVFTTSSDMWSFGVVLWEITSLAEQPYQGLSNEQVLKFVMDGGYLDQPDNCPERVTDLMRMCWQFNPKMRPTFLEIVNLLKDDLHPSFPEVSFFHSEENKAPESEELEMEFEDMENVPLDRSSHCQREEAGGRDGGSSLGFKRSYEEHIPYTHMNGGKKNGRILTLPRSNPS

| molecule | target.entity | IC50 / µM |
| --- | --- | --- |
| CN1C(=O)CCCc2cc(Nc3ncc(Cl)c(N[C@H]4[C@@H](C(N)=O)[C@@H]5C=C[C@H]4C5)n3)ccc21 (racemic) | Insulin receptor (Homo sapiens) | 0.091 |
| CCN1C(=O)CCCc2cc(Nc3ncc(Cl)c(Nc4ccccc4C(=O)NC)n3)c(OC)cc21 | Insulin receptor (Homo sapiens) | 0.034 |
| CCN1C(=O)CCCc2cc(Nc3ncc(Cl)c(Nc4ccccc4S(=O)(=O)N(C)C)n3)c(OC)cc21 | Insulin receptor (Homo sapiens) | 0.037 |
| CCN1C(=O)CCCc2c1ccc(Nc1ncc(Cl)c(Nc3ccccc3C(=O)NC)n1)c2OC | Insulin receptor (Homo sapiens) | 0.215 |
| CN1C(=O)CCCc2cc(Nc3ncc(Cl)c(N[C@@H]4CCCC[C@@H]4C(N)=O)n3)ccc21 (racemic) | Insulin receptor (Homo sapiens) | 0.319 |
| CCN1C(=O)CCCc2c1ccc(Nc1ncc(Cl)c(Nc3ccccc3S(=O)(=O)C(C)C)n1)c2OC | Insulin receptor (Homo sapiens) | 0.032 |
| CNS(=O)(=O)c1ccccc1Nc1nc(Nc2ccc3c(c2)CCCC(=O)N3C)ncc1Cl | Insulin receptor (Homo sapiens) | 0.01 |
| CCN1C(=O)CCCc2cc(Nc3ncc(Cl)c(Nc4ccccc4S(=O)(=O)C(C)C)n3)c(OC)cc21 | Insulin receptor (Homo sapiens) | 0.012 |
